// values below are reported inhibition at 10 µM
system: U138-MG human glioma cell; assay: Cell proliferation analysis (MTT); assay type: cell-based; details: Homo sapiens, 48 h, 10 µM, two days, MTT
Provide only the numeric value, understood in %.

Looking up `O=C1CCc2cc(OCC(=O)Oc3ccccc3)ccc2N1` , I found its inhibition at 10 µM recorded as 12

Looking up `O=C(COc1ccc2c(c1)CCC(=O)N2)N/N=C/c1ccco1` , I found its inhibition at 10 µM recorded as 10

Looking up `Cc1ccc(COc2ccc3c(c2)CCC(=O)N3)cc1` , I found its inhibition at 10 µM recorded as 26

Looking up `C=Cc1ccc(COc2ccc3c(c2)CCC(=O)N3)cc1` , I found its inhibition at 10 µM recorded as 47

Looking up `O=C1CCc2cc(OCCCCOC(=O)c3ccccc3)ccc2N1` , I found its inhibition at 10 µM recorded as 22

Looking up `O=C1CCc2cc(OC(=O)Nc3ccccc3)ccc2N1` , I found its inhibition at 10 µM recorded as 46

Looking up `O=C(COc1ccc2c(c1)CCC(=O)N2)Nc1ccc(F)c(Cl)c1` , I found its inhibition at 10 µM recorded as 15

Looking up `O=C(COc1ccc2c(c1)CCC(=O)N2)N/N=C/c1cccc(Oc2ccc(Cl)cc2)c1` , I found its inhibition at 10 µM recorded as 35

Looking up `O=C(COc1ccc2c(c1)CCC(=O)N2)N/N=C/c1ccc(-c2ccccc2)cc1` , I found its inhibition at 10 µM recorded as 41

Looking up `COc1ccc(C=NNC(=O)COc2ccc3c(c2)CCC(=O)N3)c(OC)c1` , I found its inhibition at 10 µM recorded as 25

Looking up `O=C1CCc2cc(OCc3cn(CCOCc4ccccc4)nn3)ccc2N1` , I found its inhibition at 10 µM recorded as 29
